# tested.on: Human STING (Homo sapiens (Human), UniProt Q86WV6, H232R)
# Sequence (Q86WV6 140-379 H232R): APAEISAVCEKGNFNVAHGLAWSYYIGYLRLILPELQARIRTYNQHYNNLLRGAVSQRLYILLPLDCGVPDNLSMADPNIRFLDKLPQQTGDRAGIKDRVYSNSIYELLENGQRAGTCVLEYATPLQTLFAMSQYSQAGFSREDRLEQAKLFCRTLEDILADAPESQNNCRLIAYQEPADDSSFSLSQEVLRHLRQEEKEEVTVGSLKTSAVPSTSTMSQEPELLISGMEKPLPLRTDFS
# measurement.protocol: Human STING TR-FRET assay
# experimental.parameters: human STING residues 140-379 (H232R), 100 nM; fluorescein labeled ligand 100 nM; 60 minutes at rt
reported.property: IC50

Request: Please report IC50 for the following compound: Nc1nc2c(ncn2[C@@H]2O[C@@H]3COP(=O)(S)O[C@H]4C[C@H](n5nnc6cncnc65)C[C@@H]4CNS(=O)(=O)O[C@@H]2C3)c(=O)[nH]1 (single isomer, unassigned)
Response: 10 to 100 µM

Request: Please report IC50 for the following compound: Nc1nc2c(ncn2[C@@H]2O[C@@H]3COS(=O)(=O)N[C@H]4C[C@H](n5cnc6c(N)ncnc65)O[C@@H]4COP(=O)(S)O[C@@H]2C3)c(=O)[nH]1 (single isomer, unassigned) [Compound I-12a]
Response: < 1 µM

Request: Please report IC50 for the following compound: Nc1nc2c(ncn2[C@@H]2O[C@@H]3COP(=O)(S)O[C@H]4[C@@H](F)[C@H](n5cnc6cncnc65)O[C@@H]4CNS(=O)(=O)O[C@@H]2[C@@H]3OCC(F)(F)F)c(=O)[nH]1 (single isomer, unassigned) [Compound I-13b]
Response: < 1 µM

Request: Please report IC50 for the following compound: Cn1cc([C@@H]2O[C@@H]3CNS(=O)(=O)O[C@@H]4C[C@@H](COP(=O)(S)O[C@H]3[C@H]2F)O[C@H]4n2cnc3c(=O)[nH]c(N)nc32)c2ncnc(N)c21 (single isomer, unassigned)
Response: 1 to 10 µM

----------
# tested.on: Human STING (Homo sapiens (Human), UniProt Q86WV6, H232R)
# measurement.protocol: Human STING TR-FRET assay
# experimental.parameters: human STING residues 140-379 (H232R), 100 nM; fluorescein labeled ligand 100 nM; 60 minutes at rt
Provide the recorded IC50 for the entries that follow.

Request: Please report IC50 for the following compound: Nc1nc2c(ncn2[C@@H]2O[C@@H]3COP(=O)(S)O[C@H]4[C@@H](F)[C@H](n5cnc6cncnc65)O[C@@H]4CNS(=O)(=O)O[C@@H]2C3)c(=O)[nH]1 (single isomer, unassigned) [Compound I-11a]
Response: < 1 µM

Request: Please report IC50 for the following compound: `Nc1nc2c(ncn2[C@@H]2O[C@@H]3COP(=O)(O)O[C@H]4[C@@H](F)[C@H](n5cnc6c(N)ncnc65)O[C@@H]4CNS(=O)(=O)O[C@@H]2C3)c(=O)[nH]1`
Response: < 1 µM

Request: Please report IC50 for the following compound: Nc1nc2c(ncn2[C@@H]2O[C@@H]3CNS(=O)(=O)O[C@H]4C[C@H](n5cnc6c(N)ncnc65)O[C@@H]4COP(=O)(S)O[C@@H]2C3)c(=O)[nH]1 (single isomer, unassigned) [Compound I-2a]
Response: > 100 µM

----------
# tested.on: Human STING (Homo sapiens (Human), UniProt Q86WV6, H232R)
# measurement.protocol: Human STING TR-FRET assay
# Type: binding
# experimental.parameters: human STING residues 140-379 (H232R), 100 nM; fluorescein labeled ligand 100 nM; 60 minutes at rt
# Procedure: Human STING (accession number GB:BC047779) DNA encoding residues 140-379 (H232R) was cloned into pET28 as N-terminal HIS and C-terminal Avi tagged fusion protein, and a rTEV cleavage site between HIS tag and STING. The sequence was verified before recombinant protein expression using E. coli expression system. […] 40 nL of test compounds in DMSO were added to wells in a white, 384 well microtitre plate (Greiner 784075). […] The plates were then read on a BMG PheraStar Plus reader (LanthaScreen module). […]
pIC50: −log10 of the molar value.
reported.property: pIC50

Request: Please report pIC50 for the following molecule: `Nc1nc2c(ncn2[C@@H]2O[C@@H]3CNS(=O)(=O)O[C@H]4C[C@H](n5cnc6c(N)ncnc65)O[C@@H]4COP(=O)(O)O[C@@H]2C3)c(=O)[nH]1`
Response: 4.00 to 5.00

Request: Please report pIC50 for the following molecule: Nc1nc2c(ncn2[C@@H]2O[C@@H]3CNS(=O)(=O)O[C@H]4C[C@H](n5cnc6c(N)ncnc65)O[C@@H]4COP(=O)(S)O[C@@H]2C3)c(=O)[nH]1 (single isomer, unassigned) [Compound I-2b]
Response: 4.00 to 5.00

Request: Please report pIC50 for the following molecule: Nc1nc2c(ncn2[C@@H]2O[C@@H]3COP(=O)(S)O[C@H]4[C@@H](F)[C@H](n5cnc6c(N)ncnc65)O[C@@H]4CNS(=O)(=O)O[C@@H]2C3)c(=O)[nH]1 (single isomer, unassigned) [Compound I-4b]
Response: > 6.00

Request: Please report pIC50 for the following molecule: Nc1nc2c(ncn2[C@@H]2O[C@@H]3CNS(=O)(=O)O[C@H]4C[C@H](n5cnc6cncnc65)C[C@@H]4COP(=O)(S)O[C@@H]2C3)c(=O)[nH]1 (single isomer, unassigned)
Response: < 4.00

Request: Please report pIC50 for the following molecule: Nc1nc2c(ncn2[C@@H]2O[C@@H]3COP(=O)(S)O[C@H]4C[C@H](n5cnc6cncnc65)C[C@@H]4CNS(=O)(=O)O[C@@H]2C3)c(=O)[nH]1 (single isomer, unassigned)
Response: 5.00 to 6.00

Request: Please report pIC50 for the following molecule: Nc1nc2c(ncn2[C@@H]2O[C@@H]3COP(=O)(S)O[C@H]4[C@@H](F)[C@H](n5cnc6c(N)ncnc65)O[C@@H]4CNS(=O)(=O)O[C@@H]2[C@@H]3F)c(=O)[nH]1 (single isomer, unassigned)
Response: > 6.00

Request: Please report pIC50 for the following molecule: Nc1nc2c(ncn2[C@@H]2O[C@@H]3COS(=O)(=O)N[C@H]4C[C@H](n5cnc6c(N)ncnc65)O[C@@H]4COP(=O)(S)O[C@@H]2C3)c(=O)[nH]1 (single isomer, unassigned) [Compound I-12b]
Response: 5.00 to 6.00

Request: Please report pIC50 for the following molecule: Nc1nc2c(ncn2[C@@H]2O[C@@H]3COP(=O)(S)O[C@H]4[C@@H](F)[C@H](n5cnc6cncnc65)O[C@@H]4CNS(=O)(=O)O[C@@H]2[C@@H]3OCC(F)(F)F)c(=O)[nH]1 (single isomer, unassigned) [Compound I-13a]
Response: > 6.00

Request: Please report pIC50 for the following molecule: `Nc1nc2c(ncn2[C@@H]2O[C@@H]3COP(=O)(O)O[C@H]4C[C@H](n5cnc6c(N)ncnc65)O[C@@H]4CNS(=O)(=O)O[C@@H]2C3)c(=O)[nH]1`
Response: 5.00 to 6.00
